- Test system: Enterococcus faecalis
- Assay: In vitro minimum inhibitory concentration against vancomycin-susceptible Enterococcus faecalis (GC 4552)
- Type: functional
Measured MIC of individual entries
Number only, in µg/mL; omit the unit.

C[C@@H](c1ccccc1)[C@@H]1NC(=O)CNC(=O)[C@H](CO)NC(=O)[C@@H]([C@@H](O)[C@@H]2CN=C(N)N2[C@H]2O[C@H](CO)[C@@H](O)[C@H](O)[C@@H]2O)NC(=O)[C@H]([C@H](O)[C@@H]2CN=C(N)N2)NC(=O)[C@@H](Cc2ccc3nc(-c4cccc(F)c4)oc3c2)NC1=O :: 64

Ask: What measured MIC is associated with Cc1ccc(Oc2ccc(-c3nc4ccc(C[C@H]5NC(=O)[C@H]([C@@H](C)c6ccccc6)NC(=O)CNC(=O)[C@H](CO)NC(=O)[C@@H]([C@@H](O)[C@@H]6CN=C(N)N6[C@H]6O[C@H](CO)[C@@H](O)[C@H](O)[C@@H]6O)NC(=O)[C@H]([C@H](O)[C@@H]6CN=C(N)N6)NC5=O)cc4o3)cc2)cc1 on Enterococcus faecalis?
Result: 8

Ask: Ok, now CCN1CCN(C(=O)N[C@@H](C(=O)N[C@@H]2C(=O)N3[C@@H]2SC(C)(C)[C@@H]3C(=O)O)c2ccccc2)C(=O)C1=O [PIPERACILLIN]
Result: 2

src = ChEMBL document CHEMBL1136143
